The reported measurements were obtained from ChEMBL document CHEMBL4689842.

Tested on: HEK-293T
procedure_details: Multiplex assay against HEK293T
Format: toxicity, cell-based
experimental_parameters: human, 24 h, 10 µM, compound concentration 10 uM, replicate 2
Property: Population Pyknosed Nuclei (%); scope: individual compounds

{"compound": "CC[C@@H]1C(=O)N(C)c2cnc(Nc3ccc(C(=O)NC4CCN(C)CC4)cc3OC)nc2N1C1CCCC1", "reading_unit": "%", "Population Pyknosed Nuclei (%)": 26}
{"compound": "CCCCN(CC)c1nc(C)nc2c1c(C)cn2-c1c(C)cc(C)cc1C.Cl", "reading_unit": "%", "Population Pyknosed Nuclei (%)": 44}
{"compound": "Cc1ccc(S(=O)(=O)NC2c3ccccc3Oc3ccccc32)cc1", "reading_unit": "%", "Population Pyknosed Nuclei (%)": 36}
{"compound": "CC(/C=C1\\SC(=S)N(CCCC(=O)Nc2ccc(C(=O)O)c(O)c2)C1=O)=C\\c1ccccc1", "reading_unit": "%", "Population Pyknosed Nuclei (%)": 24}
{"compound": "N#CCNC(=O)c1ccc(-c2ccnc(Nc3ccc(N4CCOCC4)cc3)n2)cc1", "reading_unit": "%", "Population Pyknosed Nuclei (%)": 49}
{"compound": "Cc1ccc(NC(=O)Nc2cc(C(F)(F)F)ccc2F)cc1Nc1ccc2c(c1)NC(=O)/C2=C\\c1ccc[nH]1", "reading_unit": "%", "Population Pyknosed Nuclei (%)": 2}
{"compound": "CC[C@H](Nc1ncnc2[nH]cnc12)c1nc2cccc(F)c2c(=O)n1-c1ccccc1", "reading_unit": "%", "Population Pyknosed Nuclei (%)": 2}
{"compound": "C=CC(=O)Nc1cc(-n2c(=O)ccc3cnc4ccc(-c5ccc(NS(C)(=O)=O)cc5)cc4c32)ccc1C", "reading_unit": "%", "Population Pyknosed Nuclei (%)": 39}
{"compound": "Cl.NC[C@@H]1O[C@H](C23CC4CC(CC(C4)C2)C3)Cc2c1ccc(O)c2O", "reading_unit": "%", "Population Pyknosed Nuclei (%)": 76}
{"compound": "Cc1c(Nc2ccc(S(=O)(=O)N3CCN(C)CC3)cc2F)nc2ccc(Nc3cnn(C4CC4)c3)cn2c1=O", "reading_unit": "%", "Population Pyknosed Nuclei (%)": 2}
{"compound": "CN(c1cc(C(F)(F)F)nc(OCCC(=O)O)n1)c1cccc2c1CCC2", "reading_unit": "%", "Population Pyknosed Nuclei (%)": 29}
{"compound": "C[C@@H](Oc1cc(-n2cnc3ccc(CN4CCN(C)CC4)cc32)sc1C(N)=O)c1ccccc1C(F)(F)F", "reading_unit": "%", "Population Pyknosed Nuclei (%)": 62}
{"compound": "c1ccc(-c2oc3ncnc(NC[C@@H]4CCCO4)c3c2-c2ccccc2)cc1", "reading_unit": "%", "Population Pyknosed Nuclei (%)": 66}
{"compound": "CC[C@@]1(O)C(=O)OCc2c1cc1n(c2=O)Cc2cc3ccccc3nc2-1", "reading_unit": "%", "Population Pyknosed Nuclei (%)": 0}
{"compound": "Cl.Cn1c2c(c3ccc(Cl)c(Cl)c31)C(C#N)C1(CCNCC1)NC2=O (centres undefined)", "reading_unit": "%", "Population Pyknosed Nuclei (%)": 13}
{"compound": "CCCCCNC(=N)N/N=C/c1c[nH]c2ccc(OC)cc12.O=C(O)/C=C\\C(=O)O [TEGASEROD MALEATE]", "reading_unit": "%", "Population Pyknosed Nuclei (%)": 46}
{"compound": "NC(=O)c1ccc2nc(-c3ccc(C4(N)CCC4)cc3)c(-c3ccccc3)n2n1", "reading_unit": "%", "Population Pyknosed Nuclei (%)": 2}
{"compound": "CC(C)C[C@H](NC(=O)[C@H](Cc1ccccc1)NC(=O)CNC(=O)CNC(=O)[C@@H](N)Cc1ccc(O)cc1)C(=O)O", "reading_unit": "%", "Population Pyknosed Nuclei (%)": 23}
{"compound": "CC(Cc1ccc(O)c(O)c1)C(C)Cc1ccc(O)c(O)c1 (centres undefined) [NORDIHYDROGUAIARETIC ACID]", "reading_unit": "%", "Population Pyknosed Nuclei (%)": 32}
